system: MUSK; assay: KINOMEscan kinase binding assay; settings: at 1 μM
RESULT_TYPE: % Ctrl (%)
// units = %; emit number, no label

[[record]]
chemical_structure = "C[C@@H]1COCc2nn(C)cc2-c2cc(Cl)c3c(c2)/C(=C/c2[nH]ccc2C(=O)N1)C(=O)N3"
quantitative_readout = 98

[[record]]
chemical_structure = "Cc1cc2c([nH]1)/C=C1\\C(=O)Nc3c(Cl)cc(cc31)-c1cn(C)nc1COC[C@@H](C)N(C)C2=O"
quantitative_readout = 100

[[record]]
chemical_structure = "Cc1cc2c([nH]1)/C=C1\\C(=O)Nc3ccc(cc31)-c1c(nn(C)c1C)OCCCN(C)C2=O"
quantitative_readout = 93


Q: Field request: % Ctrl | item: `Cc1cc2c([nH]1)/C=C1\C(=O)Nc3ccc(cc31)-c1c(nn(C)c1C)COCCN(C)C2=O`
Result: 100

Q: Field request: % Ctrl | item: `Cc1cc2c([nH]1)/C=C1\C(=O)Nc3c(Cl)cc(cc31)-c1cn(C)nc1COC[C@@H](C)NC2=O`
Result: 98
